Task for the reader: assign each of the following sequences its reported PBM binding z-score.
System: FXR:RXRa (NR concentration 270 nM, RXRa partner concentration 90 nM)
Procedure Details: PBM binding z-score (relative to random genomic background probes); higher = stronger binding; sequences stand for … in GC…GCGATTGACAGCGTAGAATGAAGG
Give bare numbers.

The following sequences have reported results that may help.
>  <Construct Sequence>
CCGAGTAGGTTATGGGGCATTGAGGCAACGGTGA

>  <Subject Of Test>
FXR:RXRa (NR concentration 270 nM, RXRa partner concentration 90 nM)

>  <Readout Type>
PBM binding z-score

>  <Measured>
0.345

$$$$
>  <Construct Sequence>
CGTCCAAGGTCCAAGGTCAGTGAAGAGATGACGG

>  <Subject Of Test>
FXR:RXRa (NR concentration 270 nM, RXRa partner concentration 90 nM)

>  <Readout Type>
PBM binding z-score

>  <Measured>
1.55

$$$$
>  <Construct Sequence>
CCAAGTTGGTCAGGAGGTCACACACCGGATATGA

>  <Subject Of Test>
FXR:RXRa (NR concentration 270 nM, RXRa partner concentration 90 nM)

>  <Readout Type>
PBM binding z-score

>  <Measured>
3.68

$$$$
>  <Construct Sequence>
AGAACGAGGGCATGCTGAGTTGATAGCAGAGTAG

>  <Subject Of Test>
FXR:RXRa (NR concentration 270 nM, RXRa partner concentration 90 nM)

>  <Readout Type>
PBM binding z-score

>  <Measured>
0.426

$$$$
>  <Construct Sequence>
AATACAGGGTCACTAGGCCACAGTAGGTACGAAT

>  <Subject Of Test>
FXR:RXRa (NR concentration 270 nM, RXRa partner concentration 90 nM)

>  <Readout Type>
PBM binding z-score

>  <Measured>
6.38

$$$$
>  <Construct Sequence>
CCAGACAGGTGAGAAGGTCACTCAGCCTCGATTA

>  <Subject Of Test>
FXR:RXRa (NR concentration 270 nM, RXRa partner concentration 90 nM)

>  <Readout Type>
PBM binding z-score

>  <Measured>
2.4

$$$$
>  <Construct Sequence>
CCTAGTTGGTCAGGGTCACACACGCTATAGGTAC

>  <Subject Of Test>
FXR:RXRa (NR concentration 270 nM, RXRa partner concentration 90 nM)

>  <Readout Type>
PBM binding z-score

>  <Measured>
3.57

$$$$
>  <Construct Sequence>
CCTAGTTGGTCACGAGGTCACACACCGGATATGA

>  <Subject Of Test>
FXR:RXRa (NR concentration 270 nM, RXRa partner concentration 90 nM)

>  <Readout Type>
PBM binding z-score

>  <Measured>
4.38

$$$$

Could you tell me PBM binding z-score for each of these sequences? They are listed below.
1. CCGAGTAGGTTATGGGGCAGTCAGGCAACGGTGA
2. GCTACTGGGGCAAAGCAGGTTACCATAAGGTTGG
3. GCTAGTTGGTCAGTTAAAGGTCACACACCGGTCG
4. CCTTACGGGTCACGAGGTTATACCACGACGAGCG
5. AGAATGAGGTTATCAAGATCAGGGAATTGCGGTC
6. AGAATTAGGTTACCAAAGATCAGGGAAACGCTTG

OUTPUT:
0.0419
0.552
3.58
6.99
1.64
0.207

Could you tell me PBM binding z-score for each of these sequences? They are listed below.
1. CGACCAAGGTCAGCAGGTCAGTGAAAGCGACGTG
2. TAATATAGGTAAAAGGTGAAAGTCGGTGTGGTAA
3. TAGCCTAGGTCATTCAGGGGCCAGTAGAGAAAGC
4. CCTTACGGGTCACGAGGTTATAGTACGACGAGCG
5. AGAATGAGGTTGTACGTAGATCAGGGAAGAAAGT

OUTPUT:
[5.71, 1.84, 4.49, 6.36, -0.0554]

Could you tell me PBM binding z-score for each of these sequences? They are listed below.
1. CCGTCTGGGGCAGAAAGGTTACCATACCATCCGG
2. ATATGTAGGTTATCGGGTCACTCAGTTTGCGCAT
3. TCTAGTTGGTCACGCAGGTCACACACGACGGGTA
4. TCTGCTAGGTCAGTTGGTCACCTAACGAGCTGCC
5. CGAACTAGGTCATGCAGGACAGTGAATACATTGA
6. TCTGCTAGGTGAACGATGGTCAGCTAATCTGCTA

OUTPUT:
[0.119, 2.62, 1.94, 1.06, 3.87, -0.414]

Could you tell me PBM binding z-score for each of these sequences? They are listed below.
1. GCTAGTTGGCCAGTAAAAGGTCACACACCGGTCG
2. CGAACTAGGTCATTCAGGACAGTGAATACATTGA
3. TAGCCTAGGGCATGCGGGCCAGTATAGTGTCGGC
4. TCTAGCAGGCCAGAGGGTCCCTCAAGAGGTACGG
5. TAGCCTAGATCAGATCGGGCCAGTATACGCTATA
6. TCTATTAGATGATTAGGGCAACCGAAACAGCGGA
7. TCTTGTAGATCAGCAGGTTCAGAAAGCTGGCCAA

OUTPUT:
1: 2.93; 2: 4.37; 3: -0.782; 4: -1.21; 5: -0.847; 6: 0.507; 7: -0.19
